For Somatostatin receptor type 2 (Homo sapiens, UniProt P30874), measured pIC50 is reported for the entries below.
pIC50: −log10 of the molar value. Bridge positions count the residues as written; N and C are the ends. Square brackets hold non-standard residues; d marks the D form. Peptide text beside a SMILES is read from it. Phe(4-CH2NHiPr) = CC(C)NCc1ccc(C[C@H](N)C(=O)O)cc1; d2Nal = N[C@H](Cc1ccc2ccccc2c1)C(=O)O

- compound: "CC(C)NCc1ccc(C[C@@H]2NC(=O)[C@@H](Cc3c[nH]c4ccccc34)NC(=O)[C@H](Cc3ccc(O)cc3)NC(=O)[C@H](Cc3ccccc3)NC(=O)[C@H](CCCCN)NC(=O)[C@@H](N)CSSC[C@@H](C(=O)O)NC(=O)[C@H](CO)NC(=O)[C@H]([C@@H](C)O)NC(=O)[C@H](Cc3ccccc3)NC(=O)[C@H]([C@@H](C)O)NC2=O)cc1"
  pIC50: "< 5.00"
- compound: "CC(C)NCc1ccc(C[C@@H]2NC(=O)[C@@H](Cc3ccc4ccccc4c3)NC(=O)[C@H](Cc3ccccc3)NC(=O)[C@H](Cc3ccccc3)NC(=O)[C@H](CCCCN)NC(=O)[C@@H](N)CSSC[C@@H](C(=O)O)NC(=O)[C@H](CO)NC(=O)[C@H]([C@@H](C)O)NC(=O)[C@H](Cc3ccccc3)NC(=O)[C@H]([C@@H](C)O)NC2=O)cc1 (H-CKFF[d2Nal][Phe(4-CH2NHiPr)]TFTSC-OH; disulfide 1-11)"
  pIC50: "< 6.00"
- compound: "CC(C)NCc1ccc(C[C@@H]2NC(=O)[C@@H](Cc3c[nH]c4ccccc34)NC(=O)[C@H](Cc3ccccc3)NC(=O)[C@H](Cc3ccccc3)NC(=O)[C@H](CCCCN)NC(=O)[C@@H](N)CSSC[C@@H](C(=O)O)NC(=O)[C@H](CO)NC(=O)[C@H]([C@@H](C)O)NC(=O)[C@H](Cc3ccccc3)NC(=O)[C@H]([C@@H](C)O)NC2=O)cc1 (H-CKFF[dW][Phe(4-CH2NHiPr)]TFTSC-OH; disulfide 1-11)"
  pIC50: "< 5.00"
